subjectOfTest: HIV-1LAI envelope gp120 (Human immunodeficiency virus type 1 group M subtype B)
Type: binding
runConditions: CCR5 18-mer scan; radiolabeled HIV-1LAI gp120; background subtracted
reportedMetric: Counts per 20′ Average-background (counts per 20′)
Write the number in counts per 20′ without appending the unit.

Below: 8 sequences and their reported Counts per 20′ Average-background.
IVLLLNTFQEFFGLNNCS    2134
SEPCQKINVKQIAARLLP [CCR5 segment 17-34]    −44
FIFGFVGNMLVILILINC [CCR5 segment 41-58]    343
LNTFQEFFGLNNCSSSNR [CCR5 segment 257-]    293
CSSSNRLDQAMQVTETLG [CCR5 segment 269-]    90
QAMQVTETLGMTHCCINP [CCR5 segment 277-]    81
SVYTRSTGEQEISVGL [CCR5 segment 337-]    47
SQYQFWKNFQTLKIVILG [CCR5 segment 185-]    1572

Form field Counts per 20′ Average-background for item NYYTSEPCQKINVKQIAA [CCR5 segment 13-30] on HIV-1LAI envelope gp120 (Human immunodeficiency virus type 1 group M subtype B): 6

Readout Counts per 20′ Average-background for FWKNFQTLKIVILGLVLP [CCR5 segment 189-] , test system HIV-1LAI envelope gp120 (Human immunodeficiency virus type 1 group M subtype B), was 40

# lookup: GNTMCQLLTGLYFIGFFS [CCR5 segment 97-] on HIV-1LAI envelope gp120 (Human immunodeficiency virus type 1 group M subtype B), Counts per 20′ Average-background = 941

Reported HIV-1LAI envelope gp120 (Human immunodeficiency virus type 1 group M subtype B) Counts per 20′ Average-background for item AVRLIFTIMTVYFLFWAP [CCR5 segment 233-] was 62

====

subjectOfTest: HIV-1LAI envelope gp120 (Human immunodeficiency virus type 1 group M subtype B, UniProt P03377)
Type: binding
runConditions: STRL33 18-mer scan; background subtracted; second of two count columns
This section presents sequences with their documented radioactive counts recorded in twenty minutes values.
All answers are understood in counts, so give the number only.

LVISIFYHKLQSLTDVFL [STRL33 segment 53-70]    1780.5

What the record says about SLKIIFLVMAVFLLTQMP [STRL33 segment 229-246] : radioactive counts recorded in twenty minutes is 853.5

Summary for this sequence, `MCKSLLGIYTINFYTSML` : radioactive counts recorded in twenty minutes is 1283.5

Looking up `KVTSLLIWVISLLVSLPQ` , I found its radioactive counts recorded in twenty minutes recorded as −118.5

====

COUNTS of radiolabeled gp120 retained: recorded values
subjectOfTest: HIV-1LAI envelope gp120 (Human immunodeficiency virus type 1 group M subtype B, UniProt P03377)
Format: binding
runConditions: Panel E, 9-mers and 12-mers of CD4; empty control 571
// note: answer is a bare numeric in counts

For orientation, consider the following solved cases.
EFKIDIVVL    665
AFTVEKLTG    517
KASSIVYKKEGE    559

response.value for `EGEQVEFSF` (field: COUNTS of radiolabeled gp120 retained) = 735

Form field COUNTS of radiolabeled gp120 retained, entry `FKIDIVVLA` : 568

====

subjectOfTest: HIV-1LAI envelope gp120 (Human immunodeficiency virus type 1 group M subtype B)
Assay type: binding
runConditions: Panel A, 21-mers of CD4; empty control 515 and 617
Would you mind sorting the entries by COUNTS of radiolabeled gp120 retained according to these classes? class 1 (below 800 counts), class 2 (800 counts to below 4000 counts), class 3 (4000 counts or more)

SIVYKKEGEQVEFSFPLAFTV    class 3

Now consider the entry below.
Class? Entry: AFTVEKLTGSGELWWQAERAS [human CD4 226-246]
class 2
